System: Rattus norvegicus
Assay: Antiinflammatory activity by rat adjuvant arthritis assay at 30 mg/kg peroral administration (uninjected paw at day 16).
Conditions: route oral

molecule: Cc1ccnc2c1CCC/C2=C/c1ccncc1
Change / %: -49

molecule: Cc1ccc(/C=C2\CCCc3cc(C)cnc32)cc1
Change / %: 17

molecule: Cc1ccc([C@@H](O)[C@@H]2CCCc3cc(C)cnc32)cc1
Change / %: -3

molecule: Cc1ccc([C@@H](O)[C@@H]2CCCCc3cccnc32)cc1
Change / %: -42

molecule: Cc1cc2c(nc1C(O)c1cccs1)CCCCC2 (stereo not given)
Change / %: -6

molecule: Cc1ccc(C(O)Cc2ccc3c(n2)CCCCC3)cc1 (stereo not given)
Change / %: 28

molecule: COc1cc(/C=C2\CCCc3c(C)ccnc32)ccc1OC(C)=O
Change / %: 23

molecule: Cc1ccc(C(C)(O)c2nc3c(cc2C)CCCCC3)cc1 (stereo not given)
Change / %: -4

molecule: Cc1cc2c(nc1C(O)c1cccnc1)CCCCC2 (stereo not given)
Change / %: 18

molecule: Cc1ccc(S(=O)(=O)NC2CCCc3cc(C)cnc32)cc1 (stereo not given)
Change / %: 77

molecule: C/C(=C1/CCCc2c(C)ccnc21)c1ccc(C)cc1
Change / %: 0

molecule: Cc1ccc([C@@H](O)[C@H]2c3ncc(C)cc3CCC2(C)C)cc1
Change / %: -39

molecule: Cc1ccc(C(N)c2nc3c(cc2C)CCCCC3)cc1 (stereo not given)
Change / %: -3

molecule: Cc1ccc([C@H](O)[C@@H]2CCCc3cc(C)cnc32)cc1
Change / %: 49

molecule: Cc1cc2c(nc1C(O)c1ccc(C(F)(F)F)cc1)CCCCC2 (stereo not given)
Change / %: -18

molecule: Cc1ccc(C(O)c2nc3c(cc2C)CCCCC3)cc1 (stereo not given)
Change / %: -49

molecule: Cc1cc2c(nc1C(O)c1ccccc1)CCCCC2 (stereo not given)
Change / %: -45

molecule: Cc1ccc(C(O)c2nc3c(cc2C)CCC3)cc1 (stereo not given)
Change / %: -2

molecule: Cc1cnc2c(c1)CCCC2S(=O)(=O)c1ccccc1 (stereo not given)
Change / %: -2

molecule: Cc1ccc(C(O)c2nc3c(cc2C)CCCC3)cc1 (stereo not given)
Change / %: -34

molecule: COc1cc(/C=C2\CCCc3cc4ccccc4nc32)ccc1OC(C)=O
Change / %: 14

molecule: Cc1ccnc2c1CCC/C2=C/c1ccnc2ccccc12
Change / %: -38

molecule: Cc1cccc(C(=O)C2CCCc3cccnc32)c1 (stereo not given)
Change / %: -16

molecule: Cc1ccc(C(=O)c2nc3c(cc2C)CCCCC3)cc1
Change / %: -26

molecule: Cc1ccc(C(=O)C2CCCc3c(C)ccnc32)cc1C (stereo not given)
Change / %: -28
